The measured values listed here are drawn from ChEMBL document CHEMBL1142226.

assay: Protein binding in Beagle dog plasma at 1 ug/ml; assay type: ADME, cell-free, Canis lupus familiaris; settings: read-out: PPB (converted)
readout label: fraction unbound at 1 ug/ml
Lab note: record the figure alone, no unit after it.

*Q* Using known records, supply fraction unbound at 1 ug/ml for "COc1cc2nc(N3CCCN(C(=O)N4CCOCC4)CC3)nc(N)c2c(-c2ccccn2)c1OC"
*A* 0.56

*Q* Identify fraction unbound at 1 ug/ml associated with the molecule "COc1cc2nc(N3CCc4ncccc4C3)nc(N)c2c(-c2ncccn2)c1OC"
*A* 0.45

----------
test system: Liver; assay: Unbound intrinsic clearance in Beagle dog liver microsomes at 1 uM; assay type: ADME, Canis lupus familiaris, Microsome
Strictly below 80 mL/min/kg in CL: 1.0. Otherwise: 0.0.

*Q* Please state whether CL is below 80 mL/min/kg for "COc1cc2nc(N3CCc4ncccc4C3)nc(N)c2c(-c2ncccn2)c1OC"
*A* 1.0

*Q* Please indicate whether the reported CL of "COc1cc2nc(N3CCCN(C(=O)N4CCOCC4)CC3)nc(N)c2cc1-c1ccccn1" is strictly below 80 mL/min/kg.
*A* 0.0

*Q* Does the reported CL of the following compound sit strictly below 80 mL/min/kg? "COc1cc2nc(N3CCCN(C(=O)N4CCOCC4)CC3)nc(N)c2c(-c2ccccn2)c1OC"
*A* 1.0

*Q* Determine whether this compound shows CL lower than 80 mL/min/kg (ties excluded): "COc1cc2nc(N3CCCN(C(=O)N4CCOCC4)CC3)cc(N)c2c(-c2ccc(F)cc2)c1OC"
*A* 0.0

*Q* For COc1cc2nc(N3CCc4c(cccc4NS(C)(=O)=O)C3)nc(N)c2c(-c2ccccn2)c1OC [TAPRIZOSIN] , is the recorded CL below the cut-off of 80 mL/min/kg?
*A* 0.0

*Q* State whether 80 mL/min/kg exceeds CL recorded for "COc1cc2nc(N3CCCN(C(=O)N4CCOCC4)CC3)cc(N)c2c(-c2ccccc2)c1OC" .
*A* 0.0

----------
experiment: Lipophilicity, log D in 0.1M potassium phosphate buffer at pH 7.4; type: physicochemical
Lab note - cut at 2 for logD: Fulfilled if strictly below, Not fulfilled if not.

Consider the worked cases shown below.
# compound, qualitative label
rows = [
    ("COc1cc2c(cc1OC)CN(c1nc(N3CCCN(C(=O)N4CC(O)C(O)C4)CC3)nc3cc(OC)c(OC)cc13)CC2 (stereo not drawn)", "Not fulfilled"),
    ("COc1cc2nc(N3CCCN(C(=O)N4CCOCC4)CC3)nc(N)c2cc1-c1ccccn1", "Not fulfilled"),
    ("COc1cc2nc(N3CCc4c(cccc4NS(C)(=O)=O)C3)nc(N)c2c(-c2ccccn2)c1OC", "Not fulfilled"),
]

*Q* logD under 2? Item: "COc1cc2nc(N3CCCN(C(=O)N4CCOCC4)CC3)nc(N)c2c(-c2ccccn2)c1OC"
*A* Fulfilled

*Q* is_below(logD, 2) for "COc1cc2nc(N3CCCN(C(=O)N4CCOCC4)CC3)cc(N)c2c(-c2ccc(F)cc2)c1OC" ?
*A* Fulfilled

*Q* In the record for "COc1cc2nc(N3CCCN(C(=O)N4CCOCC4)CC3)cc(N)c2c(-c2ccccc2)c1OC" , is logD less than 2?
*A* Fulfilled

*Q* Below 2 on logD? Entry "COc1cc2nc(N3CCc4ncccc4C3)nc(N)c2c(-c2ncccn2)c1OC"
*A* Not fulfilled

*Q* Find out if reported logD for "COc1cc2nc(N3CCCN(C(=O)N4CCOCC4)CC3)cc(N)c2c(-c2ncco2)c1OC" is less than 2
*A* Fulfilled
